Target: T1, Ep-CAM (UniProt P16422 24-265, limits assumed)
T1 construct: Amine coupled to a CM5 chip in the Biacore assays
T1 sequence (looked up): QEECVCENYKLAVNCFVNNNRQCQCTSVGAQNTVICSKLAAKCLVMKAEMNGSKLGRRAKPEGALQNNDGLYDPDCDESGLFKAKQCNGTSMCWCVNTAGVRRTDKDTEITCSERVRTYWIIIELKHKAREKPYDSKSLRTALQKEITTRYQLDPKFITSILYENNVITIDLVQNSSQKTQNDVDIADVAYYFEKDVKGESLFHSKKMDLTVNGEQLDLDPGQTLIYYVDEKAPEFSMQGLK
Assay: Biacore, Fab periplasmic extract
quantity measured: binding result

binder	measurement
ING-1 light chain R101W (Fab, V domains shown, Fab, periplasmic extract) VH: QIQLVQSGPELKKPGETVKISCKASGYTFTKYGMNWVKQAPGKGLKWMGWINTYTEEPTYGDDFKGRFAFSLETSASTANLQINNLKSEDTATYFCARFGSAVDYWGQGTSVTVSS VL: DIVMTQAAFSNPVTLGTSGSISCRSSKSLLHSNGITYLYWYLQKPGQSPQLLIYQMSNLASGVPDRFSSSGSGTDFTLRISRVEAEDVGVYYCAQNLELPWTFGGGTKLEMKR	no binding
ING-1 light chain Y54R (Fab, V domains shown, Fab, periplasmic extract) VH: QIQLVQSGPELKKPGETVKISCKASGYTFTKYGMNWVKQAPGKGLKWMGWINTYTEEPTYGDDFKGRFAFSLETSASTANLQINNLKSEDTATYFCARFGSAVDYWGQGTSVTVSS VL: DIVMTQAAFSNPVTLGTSGSISCRSSKSLLHSNGITYLYWYLQKPGQSPQLLIRQMSNLASGVPDRFSSSGSGTDFTLRISRVEAEDVGVYYCAQNLELPRTFGGGTKLEMKR	no binding
ING-1 light chain R101F (Fab, V domains shown, Fab, periplasmic extract) VH: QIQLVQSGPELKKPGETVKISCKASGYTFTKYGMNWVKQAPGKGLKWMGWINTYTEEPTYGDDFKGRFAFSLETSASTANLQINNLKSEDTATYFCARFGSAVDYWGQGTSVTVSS VL: DIVMTQAAFSNPVTLGTSGSISCRSSKSLLHSNGITYLYWYLQKPGQSPQLLIYQMSNLASGVPDRFSSSGSGTDFTLRISRVEAEDVGVYYCAQNLELPFTFGGGTKLEMKR	no binding
